molecular target: UniProt Q9H8M2; assay: Degradation of BRD9 (IF), immunofluorescence in MV4-11 cells, 24 hours (Assay Protocol 2); assay type: cell-based; set-up: A suspension of MV4-11 cells (ATCC CRL-9591) was prepared; host or cells: MV4-11; conditions: Assay protocol 2; BRD9 degradation; read-out: DC50
measured_quantity: DC50

Input line: Look up and state reported DC50 for COc1cc(-c2cn(C)c(=O)c(C)c2C)cc(OC)c1CN1C2CC1CN(Cc1cccc3c1CCN(C(=O)/C(C#N)=C/C(C)(C)C)C3C)C2 (mixture of isomers)
Output line: 1.25 to 10 nM

Input line: Look up and state reported DC50 for COc1cc(-c2cn(C)c(=O)c(C)c2C)ccc1OC1CCC(Cc2cccc3c2CCN(C(=O)C(C#N)=CC(C)(C)N2CCN(C4COC4)CC2)C3C(C)C)CC1 (single isomer, unassigned)
Output line: 25 to 1000 nM

Input line: Look up and state reported DC50 for COc1cc(-c2cn(C)c(=O)c(C)c2C)cc(OC)c1CN1CC(N(C)c2ccc3c(c2)[C@H](C)N(C(=O)/C(C#N)=C/C(C)(C)C)CC3)C1 (single isomer, unassigned)
Output line: 1.25 to 10 nM

Input line: Look up and state reported DC50 for COc1cc(-c2cn(C)c(=O)c(C)c2C)cc(OC)c1CN1CCN(Cc2cccc3c2CCN(C(=O)/C(C#N)=C/C(C)(C)CF)[C@@H]3C(C)C)CC12CC2 (single isomer, unassigned)
Output line: < 1.25 nM

Input line: Look up and state reported DC50 for COc1cc(-c2cn(C)c(=O)c(C)c2C)cc(OC)c1CN1CCN(Cc2cccc3c2CCN(C(=O)/C(C#N)=C/c2cccc(Br)n2)C3C)C(C(C)C)C1 (mixture of isomers)
Output line: 1.25 to 10 nM

###

biological target: BRD9 (Homo sapiens); assay: Degradation of BRD9 (IF), immunofluorescence in MV4-11 cells, 24 hours (Assay Protocol 2); format: cell-based; parameters: A suspension of MV4-11 cells (ATCC CRL-9591) was prepared; host or cells: MV4-11; settings: Assay protocol 2; BRD9 degradation; read-out: DC50
measured_quantity: DC50

compound	value
COc1cc(-c2cn(C)c(=O)c(C)c2C)cc(OC)c1CN1C2CC1CN(C(=O)/C(C#N)=C/C1(F)CC1)C2 (mixture of isomers) [Compound B189]	1.25 to 10 nM
COc1cc(-c2cn(C)c(=O)c(C)c2C)cc(OC)c1CN1CCN(Cc2cccc3c2CCN(C(=O)/C(C#N)=C/C2(C(F)(F)F)CC2)C3C)C2(CC2)C1 (mixture of isomers) [Compound B153]	< 1.25 nM
COc1cc(-c2cn(C)c(=O)c(C)c2C)cc(OC)c1CN1CCN(Cc2cccc3c2CCN(C(=O)/C(C#N)=C/C(C)(C)C)C3C)C2(CCC2)C1 (mixture of isomers) [Compound B130]	10 to 25 nM
COc1cc(-c2cn(C)c(=O)c(C)c2C)cc(OC)c1CN1CCCN(Cc2cccc3c2CCN(C(=O)/C(C#N)=C/C(C)(C)CF)[C@@H]3C(C)C)CC1 (mixture of isomers) [Compound C84]	1.25 to 10 nM
COc1cc(-c2cn(C)c(=O)c(C)c2C)cc(OC)c1CN1CCN(Cc2cccc3c2CCN(C(=O)/C(C#N)=C/C(C)(C)N2CCN(C4COC4)CC2)C3C)C2(CC2)C1 (mixture of isomers) [Compound B126]	1.25 to 10 nM
COc1cc(-c2cn(C)c(=O)c(C)c2C)cc(OC)c1CN1CC(N(C)Cc2ccc3c(c2)[C@@H](C)N(C(=O)/C(C#N)=C/C(C)(C)C)CC3)C1 (single isomer, unassigned) [Compound C71]	25 to 1000 nM
COc1cc(-c2cn(C)c(=O)c(C)c2C)cc(OC)c1CN1CCN(Cc2cccc3c2CCN(C(=O)/C(C#N)=C/C(C)(C)C)C3C2CC2)C2(CC2)C1 (mixture of isomers) [Compound C16]	< 1.25 nM
COc1cc(-c2cn(C)c(=O)c(C)c2C)cc(OC)c1CN1CCN(Cc2ccc3c(c2)[C@H](C)N(C(=O)/C(C#N)=C/C(C)(C)CF)CC3)CC12CC2 (single isomer, unassigned) [Compound C33]	1.25 to 10 nM
COc1cc(-c2cn(C)c(=O)c(C)c2C)cc(OC)c1CN1CC2CC(C1)N2Cc1cccc2c1CCN(C(=O)/C(C#N)=C/c1cccc(Br)n1)C2C (mixture of isomers) [Compound B7]	< 1.25 nM

Input line: Report DC50 under test system BRD9 (Homo sapiens) for COc1cc(-c2cn(C)c(=O)c(C)c2C)cc(OC)c1CN1CCC(Cc2cccc3c2CCN(C(=O)/C(C#N)=C/C(C)(C)CF)C3C(C)C)CC1 (mixture of isomers) [Compound C80] .
Output line: 1.25 to 10 nM

###

We begin with a simple list: items and their reported DC50.
target: BRD9 (Homo sapiens, UniProt Q9H8M2); test: Degradation of BRD9 (IF), immunofluorescence in MV4-11 cells, 24 hours (Assay Protocol 2); format: cell-based; design: A suspension of MV4-11 cells (ATCC CRL-9591) was prepared; host or cells: MV4-11; details: Assay protocol 2; BRD9 degradation; read-out: DC50

compound	DC50
COc1cc(-c2cn(C)c(=O)c(C)c2C)cc(OC)c1CN1CCN(CC(=O)NCCOc2ccc3c(c2)C(C)N(C(=O)/C(C#N)=C/c2nccs2)CC3)CC1 (mixture of isomers)	10 to 25 nM
COc1cc(-c2cn(C)c(=O)c(C)c2C)cc(OC)c1CN(C)C(=O)c1cccc2c1CCN(C(=O)/C(C#N)=C/c1cccc(Br)n1)C2C (mixture of isomers)	1.25 to 10 nM
COc1cc(-c2cn(C)c(=O)c(C)c2C)cc(OC)c1CN1C2CC1CN(C(=O)/C(C#N)=C/c1cccc(C(F)(F)F)n1)C2 (mixture of isomers)	< 1.25 nM
COc1cc(-c2cn(C)c(=O)c(C)c2C)cc(OC)c1CN1CCN(Cc2cccc3c2CCN(C(=O)/C(C#N)=C/c2cccc(Br)n2)C3C)C2(CC2)C1 (mixture of isomers)	1.25 to 10 nM
COc1cc(-c2cn(C)c(=O)c3ccsc23)cc(OC)c1CN1CCN(Cc2cccc3c2CCN(C(=O)/C(C#N)=C/C(C)(C)C)C3C)C2(CC2)C1 (mixture of isomers)	< 1.25 nM

Here is another compound to look at.
Input line: Look up and state reported DC50 for COc1cc(-c2cn(C)c(=O)c(C)c2C)cc(OC)c1CN1CCN(Cc2cccc3c2CCN(C(=O)/C(C#N)=C/C(C)(C)C)[C@H]3C)CC12CC2 (single isomer, unassigned)
Output line: 1.25 to 10 nM

###

Target: BRD9 (Homo sapiens)
Sequence (Q9H8M2 1-597): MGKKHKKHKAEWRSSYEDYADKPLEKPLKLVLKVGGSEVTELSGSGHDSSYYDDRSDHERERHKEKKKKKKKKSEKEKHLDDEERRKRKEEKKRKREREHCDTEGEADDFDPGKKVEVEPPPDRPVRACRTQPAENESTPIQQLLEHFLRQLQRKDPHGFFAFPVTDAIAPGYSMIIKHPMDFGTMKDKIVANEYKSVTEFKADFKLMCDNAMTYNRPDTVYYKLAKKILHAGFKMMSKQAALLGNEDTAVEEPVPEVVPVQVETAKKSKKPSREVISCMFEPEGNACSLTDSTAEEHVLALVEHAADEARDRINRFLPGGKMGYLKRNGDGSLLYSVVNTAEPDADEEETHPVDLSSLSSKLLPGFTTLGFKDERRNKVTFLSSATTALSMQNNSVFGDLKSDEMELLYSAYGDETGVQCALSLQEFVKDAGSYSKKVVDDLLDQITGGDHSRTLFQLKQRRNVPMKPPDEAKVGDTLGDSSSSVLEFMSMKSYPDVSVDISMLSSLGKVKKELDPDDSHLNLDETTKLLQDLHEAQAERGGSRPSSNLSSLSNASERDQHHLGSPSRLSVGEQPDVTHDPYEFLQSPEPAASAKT
Experiment: BRD9 degradation, HiBiT-BRD9 KI HEK293 (LgBiT) cells, NanoGlo Lytic Endpoint assay (Assay Protocol 1)
Format: cell-based
Conditions: Table 2; BRD9 degradation, Assay Protocol 1; 6 h of treatment; read-out: Assay 1 DC50
We begin with a simple list: items and their reported DC50.

Please review the following examples before continuing.
compound	value
COc1cc(-c2cn(C)c(=O)c3cnccc23)cc(OC)c1CN1CCN(Cc2cccc3c2CCN(C(=O)/C(C#N)=C\C(C)(C)CF)C3C)CC1 (mixture of isomers)	< 1.25 nM
COc1cc(-c2cn(C)c(=O)c3cnccc23)cc(OC)c1CN1CCN(Cc2cccc3c2CCN(C(=O)/C(C#N)=C\C2CCC2)C3C)CC1 (mixture of isomers)	< 1.25 nM
COc1cc(-c2cn(C)c(=O)c3cnccc23)cc(OC)c1CN1CCN(Cc2cccc3c2CCN(C(=O)/C(C#N)=C\c2ccns2)C3C)CC1 (mixture of isomers)	1.25 to 10 nM
COc1cc(-c2cn(C)c(=O)c3cnccc23)cc(OC)c1CN1CCCN(Cc2cccc3c2CCN(C(=O)/C(C#N)=C/C(C)(C)C)C3C)CC1 (mixture of isomers)	1.25 to 10 nM
COc1cc(-c2cn(C)c(=O)c3cc(C(=O)NCCOc4ccc5c(c4)CCN(C(=O)/C(C#N)=C/c4nccs4)C5C)sc23)cc(OC)c1CN(C)C (mixture of isomers)	25 to 300 nM
COc1cc(-c2cn(C)c(=O)c3cc(C(=O)NCCCCCOc4ccc5c(c4)CCN(C(=O)/C(C#N)=C/c4nccs4)C5C)sc23)cc(OC)c1CN(C)C (mixture of isomers)	25 to 300 nM

Input line: Look up and state reported DC50 for COc1cc(-c2cn(C)c(=O)c(C)c2C)cc(OC)c1CN1CCN(Cc2cccc3c2CCN(C(=O)/C(C#N)=C/C2CC2)C3C)CC1 (mixture of isomers)
Output line: 1.25 to 10 nM

Input line: Look up and state reported DC50 for COc1cc(-c2cn(C)c(=O)c3cnccc23)cc(OC)c1CN1CCN(Cc2cccc3c2CCN(C(=O)/C(C#N)=C\C2(F)CC2)C3C)CC1 (mixture of isomers)
Output line: 1.25 to 10 nM

Input line: Look up and state reported DC50 for COc1cc(-c2cn(C)c(=O)c(C)c2C)cc(OC)c1CN1CCC(Oc2cccc3c2CCN(C(=O)/C(C#N)=C/c2cccc(Br)n2)C3C)CC1 (mixture of isomers)
Output line: 1.25 to 10 nM

Input line: Look up and state reported DC50 for COc1cc(-c2cn(C)c(=O)c3cnccc23)cc(OC)c1CN1CCN(Cc2cccc3c2CCN(C(=O)/C(C#N)=C/C(C)(C)C)C3C)CC1 (mixture of isomers)
Output line: 1.25 to 10 nM
